test system: SNB-75 CNS; experiment: NCI tumour cell line growth inhibition, 48 h
Entry flag: class 1 if TGI reaches 20 µM; class 0 if it does not.

Below are worked cases with known answers.
- CC1(C)CC2C(C1=O)C1(C)CCCC2(C)C1=O (stereo unspecified): class 1
- C1C[OH+]CC[OH+]CC[OH+]CC[OH+]CC[OH+]CC[OH+]1.[Cl-].[Nb+5]: class 1
- COC(=O)[C@H](CCSC)NC(=O)c1ccc(CNC(=O)/C(C)=C/c2ccccc2)cc1: class 1

# input for lookup
Quick check: does NC(N)=NCC(N)C(=O)O (stereo unspecified) have TGI greater than or equal to 20 µM?
class 1

---

system: HCC-2998 colon; experiment: NCI tumour cell line growth inhibition, 48 h
reportedProperty: TGI

Examples from the recorded data:
- Nc1ccc(C(=O)N/C(=C\c2cccc([N+](=O)[O-])c2)c2nc3c4c(ccc3[nH]2)C(=O)c2ccccc2C4=O)cc1: > 100 µM
- CCOC(=O)Cc1csc(NC(=O)COC(=O)c2ccc(OC)cc2)n1: > 100 µM
- CC1=C(C(=O)Nc2ccccc2)C(c2ccc(C(C)C)cc2)C(C(=O)Nc2ccccc2)=C(C)N1: 20.9 µM
- CC1(C)CC[C@]2(C(=O)O)[C@H](O)C[C@]3(C)C(=CC[C@@H]4[C@@]5(C)CC[C@H](OC6OC(C(=O)O)C(O)C(O)C6O)C(C)(C)[C@@H]5CC[C@]43C)[C@@H]2C1 (stereo partly drawn): > 100 µM
- COC(=O)Cc1nc2ccccc2o1: > 100 µM
- COc1ccc(/C=N/N=C(\[O-])c2ccncc2)cc1F.COc1ccc(/C=N\N=C(/[O-])c2ccncc2)cc1F.[Cu+2]: > 100 µM
- CC1CC[C@@]2(OC1)OC1C[C@H]3[C@@H]4CCC5CC(O)CC[C@]5(C)[C@H]4C/C(=N\N(C)C)[C@]3(C)C1[C@@H]2C (stereo partly drawn): 45.6 µM

Here is another compound to look at.
Notebook: pull reported TGI for HCC-2998 colon, entry "CN(C)CCNc1nc2c(no[n+]2[O-])c2ccccc12"
59.2 µM

---

test system: NCI-H460 lung; assay: NCI tumour cell line growth inhibition, 48 h
reportedProperty: TGI

Example compounds with recorded TGI:
- O=C(CCl)Nc1cc(O)c2c(c1)C(=O)c1cccc(O)c1C2=O: 3.92 µM
- OC1c2ccccc2C(O)C2OC12 (configuration not stated): > 100 µM
- COc1ccccc1N=C1SCCN1C(=S)Nc1ccc(S(=O)(=O)/N=C/N(C)C)cc1: > 100 µM
- Nc1nc(N)c(-c2ccccc2)c(CCC(=O)Nc2ccc(Cl)cc2)n1: > 100 µM

# returns recorded TGI (system: NCI-H460 lung) for "CN(C)CCNc1nc2c(no[n+]2[O-])c2ccccc12"
> 100 µM

Missing value: TGI, NCI-H460 lung, entry "CN(C)c1ccc(/C=c2/c3cc([N+](=O)[O-])ccc3n3c2cc(-c2ccccc2)[n+]3C)cc1" . Fill in?
11.7 µM

Short answer please: TGI, NCI-H460 lung, entry COc1c(N2CCN(Cn3c(O)c(N=NC(=O)c4ccncc4)c4cc(F)ccc43)C(C)C2)c(F)cc2c(=O)c(C(=O)O)cn(C3CC3)c12 (configuration not stated)
> 50 µM

Which TGI is reported with NCI-H460 lung for this entry: OC(c1ccccc1)(c1cccnc1)C(O)(c1ccccc1)c1cccnc1 (configuration not stated) ?
> 100 µM

What measured TGI is associated with "COC(=O)[C@]12CC[C@@H](C)[C@H](C)[C@@H]1C1=CC[C@@H]3[C@@]4(C)CC(=O)[C@H](OC(=O)c5ccco5)[C@@]5(C)COC(=C45)C[C@@]3(C)[C@]1(C)CC2" on NCI-H460 lung?
> 100 µM

Request: TGI, test system NCI-H460 lung, entry Cc1ccc(S(=O)OC23CC4CC(CC(C4)C2)C3)cc1 (configuration not stated)
> 100 µM

Given the entry C/C=C1\CC(C(=O)OCC)CCCCCCCCCCC1=O (configuration not stated) , what TGI was observed with NCI-H460 lung?
> 100 µM

Return TGI measured with NCI-H460 lung given this compound: "CCCCCCNC(=O)Oc1ccc(/C(=C(\C)c2ccccc2)c2ccc(OCCN(CC)CC)cc2)cc1"
3.62 µM
